All figures here come from paper PMC4336329.

Entries and their hERG current change (%, negative = inhibition) at 10uM values follow.
- Target Or System: human ether-à-go-go-related gene (hERG) potassium channel (human);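 also: peak tail current of the secondary pulse compared with the same well before compound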
- Test Description: primary screen, population patch clamp on CHO cells stably expressing hERG; higher = less effect of the substance
About 14,000 (4.5%) of roughly 310,000 compounds showed an effect of 50% or more. The effect is printed as a negative number. The full list was thinned out, with strong results kept by preference.
Form entry: enter the amount, then its unit.

CN1CCN(S(=O)(=O)c2cccc(C(=O)Nc3cc(C(F)(F)F)ccc3N3CCCC3)c2)CC1
-1.41%
O=C(NCCCn1ccnc1)c1cccc(Cl)c1
0.459%

Item under review: Cc1cc(C(=O)NCCCN2CCN(C3CCCCC3)CC2)n(-c2ccccc2)n1 . Reported hERG current change (%, negative = inhibition) at 10uM?
2.76%

----------
Each item that follows carries a reported hERG current change (%, negative = inhibition) at 10uM.
- Target Or System: human ether-à-go-go-related gene (hERG) potassium channel (human, UniProt Q12809);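 also: peak tail current of the secondary pulse compared with the same well before compound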
- Sequence (Q12809 whole entry, looked up): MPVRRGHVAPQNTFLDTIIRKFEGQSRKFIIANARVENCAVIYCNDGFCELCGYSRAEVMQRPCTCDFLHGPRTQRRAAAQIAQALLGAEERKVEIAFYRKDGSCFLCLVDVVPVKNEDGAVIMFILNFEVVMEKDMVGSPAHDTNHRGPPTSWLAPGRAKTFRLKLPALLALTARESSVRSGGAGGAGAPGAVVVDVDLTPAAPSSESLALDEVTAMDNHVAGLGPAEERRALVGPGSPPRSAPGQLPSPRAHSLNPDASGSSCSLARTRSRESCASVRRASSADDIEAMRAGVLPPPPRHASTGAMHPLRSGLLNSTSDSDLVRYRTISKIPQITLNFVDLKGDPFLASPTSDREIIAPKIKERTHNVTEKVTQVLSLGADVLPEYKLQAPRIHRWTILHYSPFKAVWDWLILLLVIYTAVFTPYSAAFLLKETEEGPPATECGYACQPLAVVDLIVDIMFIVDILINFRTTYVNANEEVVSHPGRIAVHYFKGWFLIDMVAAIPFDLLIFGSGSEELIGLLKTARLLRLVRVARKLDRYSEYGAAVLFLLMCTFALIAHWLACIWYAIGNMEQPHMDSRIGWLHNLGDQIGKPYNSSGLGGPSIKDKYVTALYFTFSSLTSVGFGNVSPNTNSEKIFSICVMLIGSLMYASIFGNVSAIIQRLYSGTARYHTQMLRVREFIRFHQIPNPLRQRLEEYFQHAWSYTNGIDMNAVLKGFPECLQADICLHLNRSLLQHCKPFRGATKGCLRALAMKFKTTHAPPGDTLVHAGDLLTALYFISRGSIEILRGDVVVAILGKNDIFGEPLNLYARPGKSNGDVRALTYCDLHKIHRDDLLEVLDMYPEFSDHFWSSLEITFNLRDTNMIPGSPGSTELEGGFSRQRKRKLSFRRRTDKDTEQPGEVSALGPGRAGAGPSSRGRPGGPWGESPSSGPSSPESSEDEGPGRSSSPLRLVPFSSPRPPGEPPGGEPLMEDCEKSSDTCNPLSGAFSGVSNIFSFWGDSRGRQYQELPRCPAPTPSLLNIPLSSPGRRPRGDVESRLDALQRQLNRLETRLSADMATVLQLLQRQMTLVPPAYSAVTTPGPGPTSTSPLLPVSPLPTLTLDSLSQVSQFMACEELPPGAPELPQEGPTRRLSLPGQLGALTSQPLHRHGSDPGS
- Test Description: primary screen, population patch clamp on CHO cells stably expressing hERG; higher = less effect of the substance
- Procedure: Briefly, Chinese hamster ovary (CHO) cells stably expressing the hERG channel were dislodged from tissue culture flasks and dispensed into PPC plates. […] During the recording, background leak currents were estimated by a 100 ms step to -80 mV from an initial holding potential of -70 mV and subtracted from the subsequent current measurement. The campaign was conducted in two phases using slight differences in recording protocol. […]
Screen size: about 310,000 compounds; about 14,000 (4.5%) showed an effect of 50% or more. Effects have a minus sign here. The full list was thinned out, with strong results kept by preference.
The figure you give is taken to be in %; do not add the unit.

Cc1ccc(C(=O)CSc2nnc(-c3ccncc3)n2C)cc1
-3.2
O=C(CCCOc1ccc(Cl)cc1Cl)NCCCn1ccnc1
-62.5

Next, consider the following molecule.
Record request: hERG current change (%, negative = inhibition) at 10uM value, item Fc1ccccc1CNc1ccc(Cl)cc1
-8.14

----------
Parameter: hERG current change (%, negative = inhibition) at 10uM. Scope: all listed entries.
- Target Or System: human ether-à-go-go-related gene (hERG) potassium channel (human, UniProt Q12809);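 also: peak tail current of the secondary pulse compared with the same well before compound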
- Test Description: primary screen, population patch clamp on CHO cells stably expressing hERG; higher = less effect of the substance
About 14,000 (4.5%) of roughly 310,000 compounds showed an effect of 50% or more. Effects have a minus sign here. The sample holds strong results, similar compounds and a random draw of the others, so the mix is not that of the screen.
Please reply with the bare figure in % and do not write the unit itself.

Here are 5 molecules together with their reported answers.
Cc1ccc(S(=O)(=O)/C(C#N)=C/c2c(N3CCN(Cc4ccccc4)CC3)nc3ccccn3c2=O)cc1
5.58
COc1ccccc1C(=O)COC(=O)CSC(C)C(=O)Nc1cc(C)on1 (centres unmarked)
-13.7
COc1ccc(C2SCC(=O)N2CCc2ccc(OC)c(OC)c2)cc1 (centres unmarked)
-31.3
CS(=O)(=O)NC1CCN(Cc2ccccc2)CC1
-2.95
N#C/C(=C\c1c(N2CCC(C(N)=O)CC2)nc2ccccn2c1=O)S(=O)(=O)c1ccc(Cl)cc1
-70.9

Look at this molecule and give its reported hERG current change (%, negative = inhibition) at 10uM. CCN(CC(=O)Nc1ccccc1OC)C(=O)C1CCCC1
0.547

Can you look up the measured hERG current change (%, negative = inhibition) at 10uM of CCOc1cc(C(=S)N2CCN(C)CC2)ccc1OCC(=O)N1CCCC1 for me?
16

What does the record list as hERG current change (%, negative = inhibition) at 10uM for NNC(=O)CC12CC3CC(C1)CC(n1ncnn1)(C3)C2 ?
-15.1
